biological target: Cholecystokinin receptor type A (Homo sapiens); assay type: cell-based, CHO
assay-endpoint: IC50 (nM)
Return type: number; implicit unit nM.

Input CC(C)N(C(=O)CN1C(=O)[C@H](NC(=O)Nc2cccc(C(=O)O)c2)C(=O)N(c2ccccc2)c2ccccc21)c1ccccc1 . Output IC50: 128

###

target: Cholecystokinin receptor type A (Homo sapiens, UniProt P32238, L356H); assay type: cell-based, CHO
Sequence (P32238 whole entry L356H): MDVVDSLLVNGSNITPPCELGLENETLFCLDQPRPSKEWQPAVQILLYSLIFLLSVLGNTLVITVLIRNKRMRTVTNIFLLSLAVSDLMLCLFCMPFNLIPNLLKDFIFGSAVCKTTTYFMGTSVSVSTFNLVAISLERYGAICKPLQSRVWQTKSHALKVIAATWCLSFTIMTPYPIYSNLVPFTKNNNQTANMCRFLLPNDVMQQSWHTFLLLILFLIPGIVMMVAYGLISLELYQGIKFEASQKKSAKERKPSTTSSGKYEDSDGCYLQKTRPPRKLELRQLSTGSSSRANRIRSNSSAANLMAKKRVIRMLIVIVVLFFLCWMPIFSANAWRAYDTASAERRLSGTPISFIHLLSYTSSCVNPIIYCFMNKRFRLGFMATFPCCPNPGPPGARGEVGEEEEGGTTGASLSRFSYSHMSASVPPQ
assay-endpoint: IC50
Kindly report the value followed by its unit.

I looked up COc1ccc(N(C)C(=O)CN2C(=O)C(NC(=O)Nc3ccccc3)C(=O)N(c3ccccc3)c3ccccc32)cc1 (stereo unspecified) and its IC50 for Cholecystokinin receptor type A (Homo sapiens, UniProt P32238, L356H) was 233 nM

###

molecular target: Cholecystokinin receptor type A (Homo sapiens, UniProt P32238, L356H); type: cell-based, CHO
assay-endpoint: IC50 (nM)
I only need the number, in nM, no unit after it.

IC50 in this record for COc1ccc(N(C)C(=O)CN2C(=O)C(NC(=O)Nc3ccccc3)C(=O)N(c3ccccc3)c3ccccc32)cc1 (stereo unspecified) : 153

###

biological target: Gastrin/cholecystokinin type B receptor (Homo sapiens, UniProt P32239); assay type: cell-based, CHO
Sequence (P32239 whole entry): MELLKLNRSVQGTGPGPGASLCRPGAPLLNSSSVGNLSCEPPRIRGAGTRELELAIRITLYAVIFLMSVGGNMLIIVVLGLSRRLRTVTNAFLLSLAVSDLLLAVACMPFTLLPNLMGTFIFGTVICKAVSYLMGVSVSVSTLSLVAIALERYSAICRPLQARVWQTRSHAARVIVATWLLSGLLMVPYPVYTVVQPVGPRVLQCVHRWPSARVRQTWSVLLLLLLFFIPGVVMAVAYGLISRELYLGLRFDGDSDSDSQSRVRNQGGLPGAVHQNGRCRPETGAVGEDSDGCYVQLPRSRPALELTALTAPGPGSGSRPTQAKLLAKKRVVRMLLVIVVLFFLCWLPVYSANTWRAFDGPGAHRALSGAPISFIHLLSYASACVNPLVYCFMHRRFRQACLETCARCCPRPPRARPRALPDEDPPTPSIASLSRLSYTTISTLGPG
assay-endpoint: IC50 (nM)
Just the number in nM, nothing appended.

For this compound ( COc1ccc(N(C)C(=O)CN2C(=O)C(NC(=O)Nc3ccccc3)C(=O)N(c3ccccc3)c3ccccc32)cc1 (stereo unspecified) ), measured IC50 is 20.3

###

biological target: Cholecystokinin receptor type A (Homo sapiens, UniProt P32238, T117V/T118S); assay type: cell-based, CHO
Sequence (P32238 whole entry T117V/T118S): as the sequence (P32238 whole entry L356H) above, with T117V, T118S, H356L counted along it
assay-endpoint: pIC50
Quick note: pIC50 values are minus log10 of concentrations in mol/L.

Documented pIC50 of COc1ccc(N(C)C(=O)CN2C(=O)C(NC(=O)Nc3ccccc3)C(=O)N(c3ccccc3)c3ccccc32)cc1 (stereo unspecified) : 6.48

###

biological target: Gastrin/cholecystokinin type B receptor (Homo sapiens, UniProt P32239); format: cell-based, CHO
assay-endpoint: IC50 (nM)
State just the number; it will be interpreted in nM.

# IC50 (molecule: CC(C)N(C(=O)CN1C(=O)[C@H](NC(=O)Nc2cccc(C(=O)O)c2)C(=O)N(c2ccccc2)c2ccccc21)c1ccccc1 ) is 2.7

###

target: Cholecystokinin receptor type A (Homo sapiens, UniProt P32238, N98T); type: cell-based, CHO; settings: read-out: IC50
Sequence (P32238 whole entry N98T): as the sequence (P32238 whole entry L356H) above, with N98T, H356L counted along it
assay-endpoint: IC50 (nM)
Express the result in nM but write the number alone.

Kindly note: Cholecystokinin receptor type A (Homo sapiens, UniProt P32238, N98T), COc1ccc(N(C)C(=O)CN2C(=O)C(NC(=O)Nc3ccccc3)C(=O)N(c3ccccc3)c3ccccc32)cc1 (stereo unspecified) , IC50 value reported: 875

###

molecular target: Cholecystokinin receptor type A (Homo sapiens, UniProt P32238, N98T); format: cell-based, CHO
assay-endpoint: IC50 (nM)
# output: bare number, implied unit nM

In plain terms, COc1ccc(N(C)C(=O)CN2C(=O)C(NC(=O)Nc3ccccc3)C(=O)N(c3ccccc3)c3ccccc32)cc1 (stereo unspecified) has a documented IC50 of 40.3

###

target: Cholecystokinin receptor type A (Homo sapiens, UniProt P32238, T117V/T118S); type: cell-based, CHO
assay-endpoint: pIC50
// pIC50 here means minus log10 of the molar concentration (mol/L)

pIC50 recorded for this molecule, COc1ccc(N(C)C(=O)CN2C(=O)C(NC(=O)Nc3ccccc3)C(=O)N(c3ccccc3)c3ccccc32)cc1 (stereo unspecified) , is 7.30

# credit: ChEMBL document CHEMBL3407371
